Provenance of the data: patent US7858630B2

Reported pKi values, human serotonin 5-HT2A receptor (Homo sapiens, UniProt P28223).
Lab note — pKi values are minus log10 of concentrations in M.

Solved cases (4 shown):
{"COMPOUND": "O=C(CO)N[C@H]1CC[C@H](CCN2CCN(c3noc4cc(Cl)ccc34)CC2)CC1 [Example 42]", "pKi": 8.16}
{"COMPOUND": "CC(=O)N[C@H]1CC[C@H](CCN2CCN(c3noc4cc(Cl)ccc34)CC2)CC1 [Example 30]", "pKi": 8.06}
{"COMPOUND": "O=C(N[C@H]1CC[C@H](CCN2CCN(c3noc4cc(Cl)ccc34)CC2)CC1)[C@H]1CCOC1 [Example 46]", "pKi": 7.96}
{"COMPOUND": "Cc1cc2c(N3CCN(CC[C@H]4CC[C@H](NC(=O)C[C@@H]5COCCO5)CC4)CC3)noc2cc1F [Example 114]", "pKi": 7.77}

Provide pKi, tested on human serotonin 5-HT2A receptor (Homo sapiens, UniProt P28223), for CC(=O)N[C@H]1CC[C@H](CCN2CCN(c3noc4cc(F)c(Cl)cc34)CC2)CC1 [Example 73] .
Sequence (P28223 whole entry): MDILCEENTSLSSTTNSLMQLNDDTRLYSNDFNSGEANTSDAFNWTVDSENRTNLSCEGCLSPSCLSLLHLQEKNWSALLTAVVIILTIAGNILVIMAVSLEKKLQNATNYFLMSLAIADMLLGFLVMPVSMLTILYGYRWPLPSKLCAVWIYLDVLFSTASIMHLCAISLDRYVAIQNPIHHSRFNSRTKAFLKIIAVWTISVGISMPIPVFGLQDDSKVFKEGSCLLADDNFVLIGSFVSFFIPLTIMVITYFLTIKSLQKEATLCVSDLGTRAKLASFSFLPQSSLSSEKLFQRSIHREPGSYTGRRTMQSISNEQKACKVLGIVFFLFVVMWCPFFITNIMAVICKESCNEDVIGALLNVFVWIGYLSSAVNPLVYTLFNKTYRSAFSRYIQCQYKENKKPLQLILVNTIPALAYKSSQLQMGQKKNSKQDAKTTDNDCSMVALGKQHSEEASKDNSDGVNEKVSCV
7.77

Provide pKi, tested on human serotonin 5-HT2A receptor (Homo sapiens, UniProt P28223), for CCOCC(=O)N[C@H]1CC[C@H](CCN2CCN(c3noc4cc(F)c(C)cc34)CC2)CC1 [Example 110] .
8.00

Provide pKi, tested on human serotonin 5-HT2A receptor (Homo sapiens, UniProt P28223), for CCC(=O)N[C@H]1CC[C@H](CCN2CCN(c3noc4cc(C)ccc34)CC2)CC1 [Example 99] .
8.23

Provide pKi, tested on human serotonin 5-HT2A receptor (Homo sapiens, UniProt P28223), for O=C(N[C@H]1CC[C@H](CCN2CCN(c3noc4cc(Cl)ccc34)CC2)CC1)C1CCOC1 (stereo partly shown) [Example 34] .
7.98

Provide pKi, tested on human serotonin 5-HT2A receptor (Homo sapiens, UniProt P28223), for Cc1ccc2c(N3CCN(CC[C@H]4CC[C@H](NC(=O)CC5COCCO5)CC4)CC3)noc2c1 (stereo partly shown) [Example 102] .
8.58

Provide pKi, tested on human serotonin 5-HT2A receptor (Homo sapiens, UniProt P28223), for O=C(CC1CCOCC1)N[C@H]1CC[C@H](CCN2CCN(c3noc4cc(Cl)c(Cl)cc34)CC2)CC1 [Example 97] .
7.51

Provide pKi, tested on human serotonin 5-HT2A receptor (Homo sapiens, UniProt P28223), for O=C(C[C@H]1CCCCO1)N[C@H]1CC[C@H](CCN2CCN(c3noc4cc(Cl)ccc34)CC2)CC1 [Example 49] .
8.07

Provide pKi, tested on human serotonin 5-HT2A receptor (Homo sapiens, UniProt P28223), for O=C(C[C@H]1C[C@H](CO)C1)N[C@H]1CC[C@H](CCN2CCN(c3noc4cc(F)c(Cl)cc34)CC2)CC1 [Example 79] .
8.61

Provide pKi, tested on human serotonin 5-HT2A receptor (Homo sapiens, UniProt P28223), for COC(CC(=O)N[C@H]1CC[C@H](CCN2CCN(c3noc4cc(Cl)ccc34)CC2)CC1)OC [Example 55] .
8.12
